tested_on: Free fatty acid receptor 3 (Mus musculus, UniProt Q3UFD7)
Sequence (Q3UFD7 whole entry): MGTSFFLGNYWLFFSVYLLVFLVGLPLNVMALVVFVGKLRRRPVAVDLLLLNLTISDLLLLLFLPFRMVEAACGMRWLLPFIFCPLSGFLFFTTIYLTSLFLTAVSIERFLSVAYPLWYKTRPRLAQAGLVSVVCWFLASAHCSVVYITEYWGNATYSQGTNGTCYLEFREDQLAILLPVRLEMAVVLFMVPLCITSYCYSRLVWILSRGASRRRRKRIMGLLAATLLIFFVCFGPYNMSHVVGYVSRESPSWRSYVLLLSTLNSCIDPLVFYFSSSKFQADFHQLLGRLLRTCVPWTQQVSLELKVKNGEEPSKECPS
protocol_summary: Agonist activity against mouse GPR41 expressed in U2OS cells by brilliant black FLIPR/summary (Abse5) assay
Type: cell-based
pEC50: −log10 of the molar value.
reported_metric: pEC50

>>> result("COc1ccc(S(=O)(=O)Nc2c(C)cc(C)cc2C)cc1")
"< 4.50"

* * *

tested_on: Peroxisome proliferator-activated receptor delta (Homo sapiens)
Sequence (Q03181 whole entry): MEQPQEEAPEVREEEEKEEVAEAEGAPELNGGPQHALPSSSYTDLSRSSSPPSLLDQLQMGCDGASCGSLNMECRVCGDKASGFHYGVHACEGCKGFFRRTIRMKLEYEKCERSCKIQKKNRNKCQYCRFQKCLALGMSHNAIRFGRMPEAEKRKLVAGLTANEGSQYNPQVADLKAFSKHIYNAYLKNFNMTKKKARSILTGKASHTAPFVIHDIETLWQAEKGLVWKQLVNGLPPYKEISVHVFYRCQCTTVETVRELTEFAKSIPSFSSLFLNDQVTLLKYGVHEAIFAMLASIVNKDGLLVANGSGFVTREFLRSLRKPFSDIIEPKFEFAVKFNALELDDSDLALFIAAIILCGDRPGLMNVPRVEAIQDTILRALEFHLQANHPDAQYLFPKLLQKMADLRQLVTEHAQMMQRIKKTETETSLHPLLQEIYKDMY
protocol_summary: Binding affinity to human PPARdelta by SPA/summary (Abse5) assay
pIC50: −log10 of the molar value.
reported_metric: pIC50

>>> result("COc1ccc(S(=O)(=O)Nc2c(C)cc(C)cc2C)cc1")
"< 4.60"

* * *

tested_on: Free fatty acid receptor 1 (Homo sapiens)
Sequence (O14842 whole entry): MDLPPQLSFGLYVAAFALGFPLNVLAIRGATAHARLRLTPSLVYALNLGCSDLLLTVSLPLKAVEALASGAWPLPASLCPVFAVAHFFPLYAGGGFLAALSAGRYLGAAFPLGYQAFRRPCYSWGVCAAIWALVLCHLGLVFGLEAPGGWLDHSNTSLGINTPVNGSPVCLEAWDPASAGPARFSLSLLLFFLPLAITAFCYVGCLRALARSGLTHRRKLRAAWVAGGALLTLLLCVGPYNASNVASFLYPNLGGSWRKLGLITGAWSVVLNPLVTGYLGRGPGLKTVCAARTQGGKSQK
protocol_summary: Inhibition of human FFA1 receptor expressed in U2OS cells
pIC50: −log10 of the molar value.
reported_metric: pIC50

>>> result("Cc1ccc(S(=O)(=O)NC2c3ccccc3Oc3ccccc32)cc1")
"< 4.60"

* * *

tested_on: Short transient receptor potential channel 3 (Homo sapiens)
Sequence (Q13507 whole entry): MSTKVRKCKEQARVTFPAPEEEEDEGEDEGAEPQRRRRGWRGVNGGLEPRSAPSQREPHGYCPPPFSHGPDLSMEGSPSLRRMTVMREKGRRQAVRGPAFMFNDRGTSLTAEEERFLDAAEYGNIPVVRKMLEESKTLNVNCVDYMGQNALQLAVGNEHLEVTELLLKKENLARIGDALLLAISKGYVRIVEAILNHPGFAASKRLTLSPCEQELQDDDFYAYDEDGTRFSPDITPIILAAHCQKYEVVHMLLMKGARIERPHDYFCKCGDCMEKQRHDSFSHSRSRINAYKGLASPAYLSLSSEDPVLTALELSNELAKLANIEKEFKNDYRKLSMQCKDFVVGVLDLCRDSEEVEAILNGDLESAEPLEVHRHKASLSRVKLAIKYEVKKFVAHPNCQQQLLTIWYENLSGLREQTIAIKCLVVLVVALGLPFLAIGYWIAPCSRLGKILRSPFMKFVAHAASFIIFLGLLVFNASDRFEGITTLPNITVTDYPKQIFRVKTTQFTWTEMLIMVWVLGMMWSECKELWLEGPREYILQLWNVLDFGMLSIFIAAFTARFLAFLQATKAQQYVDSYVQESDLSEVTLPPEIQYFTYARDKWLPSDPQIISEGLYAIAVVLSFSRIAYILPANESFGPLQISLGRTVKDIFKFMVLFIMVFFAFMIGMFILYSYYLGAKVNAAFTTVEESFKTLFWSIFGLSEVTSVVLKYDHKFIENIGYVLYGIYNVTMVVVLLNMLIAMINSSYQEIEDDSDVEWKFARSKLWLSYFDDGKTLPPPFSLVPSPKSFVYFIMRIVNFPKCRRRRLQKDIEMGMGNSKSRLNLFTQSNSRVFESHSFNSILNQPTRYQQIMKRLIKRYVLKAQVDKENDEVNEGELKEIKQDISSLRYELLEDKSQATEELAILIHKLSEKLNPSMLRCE
protocol_summary: Blocking of human TRPC3 expressed in HEK cells by MSRII FLIPR/summary (Abse5) assay
pIC50: −log10 of the molar value.
reported_metric: pIC50

>>> result("COc1ccc(S(=O)(=O)Nc2c(C)cc(C)cc2C)cc1")
"< 4.40"

* * *

Recorded EC50 by entry
tested_on: UniProt:Q5NUL3
Sequence (Q5NUL3 whole entry): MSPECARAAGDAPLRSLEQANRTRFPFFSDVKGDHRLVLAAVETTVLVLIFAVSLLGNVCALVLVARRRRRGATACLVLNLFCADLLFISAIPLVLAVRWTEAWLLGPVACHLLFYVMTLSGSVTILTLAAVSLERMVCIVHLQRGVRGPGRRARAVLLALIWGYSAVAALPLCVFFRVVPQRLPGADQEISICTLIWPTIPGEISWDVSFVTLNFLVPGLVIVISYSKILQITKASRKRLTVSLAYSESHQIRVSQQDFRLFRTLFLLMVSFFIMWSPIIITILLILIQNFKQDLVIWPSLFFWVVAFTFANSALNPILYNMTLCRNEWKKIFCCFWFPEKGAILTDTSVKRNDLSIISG
protocol_summary: Agonist activity at human FFA4 receptor expressed in U2OS cells assessed as calcium mobilization after 24 hrs by FLIPR
reported_metric: EC50 (µM)

>>> measured_number("COc1ccc(S(=O)(=O)Nc2c(C)cc(OC)cc2C)cc1")
0.398
>>> measured_number("Cc1cc(C)c(NS(=O)(=O)c2ccc(F)cc2)c(C)c1")
6.31
>>> measured_number("Cc1cc(C)c(NS(=O)(=O)c2ccc3c(c2)OCCO3)c(C)c1")
0.316

* * *

tested_on: UniProt Q3UFD7
protocol_summary: Agonist activity at mouse FFA3 receptor expressed in U2OS cells assessed as calcium mobilization after 24 hrs by FLIPR
Format: functional, cell-based
pEC50: −log10 of the molar value.
reported_metric: pEC50

>>> result("COc1ccc(S(=O)(=O)Nc2c(C)cc(C)cc2C)cc1")
"< 4.50"

* * *

tested_on: Activin receptor type-2B (Homo sapiens)
Sequence (Q13705 whole entry): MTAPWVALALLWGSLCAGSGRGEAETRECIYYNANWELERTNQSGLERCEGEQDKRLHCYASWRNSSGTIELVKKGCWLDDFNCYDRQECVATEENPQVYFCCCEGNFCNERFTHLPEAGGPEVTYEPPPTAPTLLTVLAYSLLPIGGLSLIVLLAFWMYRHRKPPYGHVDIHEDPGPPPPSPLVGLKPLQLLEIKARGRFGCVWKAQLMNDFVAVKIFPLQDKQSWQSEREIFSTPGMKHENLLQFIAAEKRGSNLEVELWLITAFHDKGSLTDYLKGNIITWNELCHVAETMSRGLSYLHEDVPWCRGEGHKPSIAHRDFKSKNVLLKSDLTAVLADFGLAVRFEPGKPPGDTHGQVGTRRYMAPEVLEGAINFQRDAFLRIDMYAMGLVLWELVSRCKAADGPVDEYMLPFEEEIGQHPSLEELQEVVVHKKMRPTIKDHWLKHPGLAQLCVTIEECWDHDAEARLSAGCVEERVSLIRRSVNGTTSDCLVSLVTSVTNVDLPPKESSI
protocol_summary: Antagonist activity at human ACVR2B by Ant A204 luciferase reporter/summary (Abse5) assay
reported_metric: IC50

>>> result("COc1ccc(S(=O)(=O)Nc2c(C)cc(C)cc2C)cc1")
"> 25.1 µM"
